Tested on: A549
Test: Anticancer activity against human A549 cells assessed as inhibition of cell growth at 10 uM incubated for 4 days by CCK8 assay
Type: functional
Details: A549, 96 h, read-out: GI
quantity_kind: inhibition of growth at 10 µM (%)
Kindly answer with a numeric value in %, unit omitted.

Ask: Consider the molecule CCCSc1nc(N/N=C/c2ccc([N+](=O)[O-])cc2)c2nnn([C@@H]3C[C@H](O)[C@@H](O)[C@H]3O)c2n1 and give its measured inhibition of growth at 10 µM.
Reply: 67.6

Ask: Entry CCCSc1nc(N/N=C/c2ccc(O)cc2O)c2nnn([C@@H]3C[C@H](O)[C@@H](O)[C@H]3O)c2n1 : reported inhibition of growth at 10 µM = ?
Reply: 33

Ask: May I ask what inhibition of growth at 10 µM has been recorded for CCCSc1nc(N/N=C/c2ccc(Cl)cc2)c2nnn([C@@H]3C[C@H](O)[C@@H](O)[C@H]3O)c2n1 ?
Reply: 34.2

Ask: What value of inhibition of growth at 10 µM has been reported for the following molecule? CCCSc1nc(N/N=C/c2ccccc2O)c2nnn([C@@H]3C[C@H](O)[C@@H](O)[C@H]3O)c2n1
Reply: 24.3

Ask: # input molecule: CCCSc1nc(N/N=C/c2cccc(O)c2)c2nnn([C@@H]3C[C@H](O)[C@@H](O)[C@H]3O)c2n1 ; wanted: its inhibition of growth at 10 µM
Reply: 21.4

Ask: Consider the molecule CCCSc1nc(N/N=C/c2ccc(F)c(F)c2)c2nnn([C@@H]3C[C@H](O)[C@@H](O)[C@H]3O)c2n1 and give its measured inhibition of growth at 10 µM.
Reply: 26.9

Ask: Query: inhibition of growth at 10 µM; subject: CCCSc1nc(N/N=C/c2ccc(OC)c(OC)c2)c2nnn([C@@H]3C[C@H](O)[C@@H](O)[C@H]3O)c2n1
Reply: 28.9

Ask: # inhibition of growth at 10 µM lookup, item CCCSc1nc(N/N=C/c2ccccc2)c2nnn([C@@H]3C[C@H](O)[C@@H](O)[C@H]3O)c2n1
Reply: 22.9

Ask: Give the measured inhibition of growth at 10 µM of CCCSc1nc(N/N=C/c2ccc(Cl)cc2Cl)c2nnn([C@@H]3C[C@H](O)[C@@H](O)[C@H]3O)c2n1 .
Reply: 41.6

Ask: Value lookup for inhibition of growth at 10 µM; key = CCCSc1nc(N/N=C/c2ccccn2)c2nnn([C@@H]3C[C@H](O)[C@@H](O)[C@H]3O)c2n1
Reply: 38.6

Ask: Return reported inhibition of growth at 10 µM; argument: CCCSc1nc(N/N=C/c2ccccc2OC)c2nnn([C@@H]3C[C@H](O)[C@@H](O)[C@H]3O)c2n1
Reply: 31.6

Ask: Looking for the measured inhibition of growth at 10 µM of CCCSc1nc(N/N=C/c2ccc(O)cc2)c2nnn([C@@H]3C[C@H](O)[C@@H](O)[C@H]3O)c2n1 , can you help?
Reply: 32.3

Ask: Quick one: inhibition of growth at 10 µM for CCCSc1nc(N/N=C/c2cccs2)c2nnn([C@@H]3C[C@H](O)[C@@H](O)[C@H]3O)c2n1 ?
Reply: 38.8

Ask: State the recorded inhibition of growth at 10 µM for this entry: CCCSc1nc(N/N=C/c2ccccc2Cl)c2nnn([C@@H]3C[C@H](O)[C@@H](O)[C@H]3O)c2n1
Reply: 30.5

Ask: Look at this molecule and give its reported inhibition of growth at 10 µM. CCCSc1nc(N/N=C/c2cccc([N+](=O)[O-])c2)c2nnn([C@@H]3C[C@H](O)[C@@H](O)[C@H]3O)c2n1
Reply: 68

Ask: May I ask what inhibition of growth at 10 µM has been recorded for CCCSc1nc(N/N=C/c2ccc(OC)cc2)c2nnn([C@@H]3C[C@H](O)[C@@H](O)[C@H]3O)c2n1 ?
Reply: 69.2

Ask: Fill in the blank: the reported inhibition of growth at 10 µM of O=c1[nH]cc(F)c(=O)[nH]1 [FLUOROURACIL] is ____.
Reply: 64.5
